# Experimental system: Thymidine kinase (Escherichia coli)
# Experiment notes: Compound was tested for the initial inhibition of thymidine kinase by 1.4 mM compound in the presence of 5.7 mM ATP
Provide the recorded inhibition for the entries that follow.
One number for each entry, in %.

// input: 3 compounds below; output: inhibition for each
1. CN(CCCCN(C)C(=O)CCCNc1ncnc2c1ncn2[C@@H]1O[C@H](COP(=O)(O)OP(=O)(O)OP(=O)(O)O)[C@@H](O)[C@H]1O)C(=O)CCCNC(=O)CI
2. O=C(CI)NCCCCNc1ncnc2c1ncn2[C@@H]1O[C@H](COP(=O)(O)OP(=O)(O)OP(=O)(O)O)[C@@H](O)[C@H]1O
3. O=C(CI)NCCCCCC(=O)NCCCCCCNc1ncnc2c1ncn2[C@@H]1O[C@H](COP(=O)(O)OP(=O)(O)OP(=O)(O)O)[C@@H](O)[C@H]1O

Ans:
12
39
8

Q: Quick one: give measured inhibition for `O=C(CI)NCCCCCNc1ncnc2c1ncn2[C@@H]1O[C@H](COP(=O)(O)OP(=O)(O)OP(=O)(O)O)[C@@H](O)[C@H]1O`
Ans: 26

---

Provide the recorded Relative velocity for the entries that follow.
# Experimental system: Hexokinase-1 (Rattus norvegicus) (UniProt P05708)
# Sequence (P05708 whole entry): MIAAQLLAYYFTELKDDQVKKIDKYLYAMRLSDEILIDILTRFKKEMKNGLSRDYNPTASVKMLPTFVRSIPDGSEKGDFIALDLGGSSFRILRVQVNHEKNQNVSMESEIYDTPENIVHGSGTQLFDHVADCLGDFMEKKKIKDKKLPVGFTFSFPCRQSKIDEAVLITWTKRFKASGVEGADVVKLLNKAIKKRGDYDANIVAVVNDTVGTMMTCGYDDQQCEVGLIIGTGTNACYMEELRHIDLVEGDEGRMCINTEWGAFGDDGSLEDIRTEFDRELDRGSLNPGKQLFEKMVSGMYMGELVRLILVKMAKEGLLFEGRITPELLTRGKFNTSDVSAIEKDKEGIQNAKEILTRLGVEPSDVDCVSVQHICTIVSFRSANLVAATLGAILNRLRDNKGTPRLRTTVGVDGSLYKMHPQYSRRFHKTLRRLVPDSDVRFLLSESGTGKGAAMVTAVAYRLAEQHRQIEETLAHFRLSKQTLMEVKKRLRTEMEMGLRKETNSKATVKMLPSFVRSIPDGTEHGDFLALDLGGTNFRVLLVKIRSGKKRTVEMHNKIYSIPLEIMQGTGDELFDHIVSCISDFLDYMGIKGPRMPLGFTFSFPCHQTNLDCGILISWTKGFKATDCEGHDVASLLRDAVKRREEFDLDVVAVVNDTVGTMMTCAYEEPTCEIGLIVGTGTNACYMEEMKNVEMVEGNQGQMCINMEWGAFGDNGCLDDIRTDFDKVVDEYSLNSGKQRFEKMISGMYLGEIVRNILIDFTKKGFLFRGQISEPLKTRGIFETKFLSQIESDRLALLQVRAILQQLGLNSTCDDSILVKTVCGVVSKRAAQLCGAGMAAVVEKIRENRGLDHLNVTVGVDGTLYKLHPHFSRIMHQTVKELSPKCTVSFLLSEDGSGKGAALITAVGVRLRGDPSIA
# Experiment notes: Substrate activity for rat hexokinase I as 1:1 Mg complex at 5.0 mM
Numbers only.

Use the examples below as a reference point.
1) CC(=O)NCCCCCCCCNc1ncnc2c1ncn2[C@@H]1O[C@H](COP(=O)(O)OP(=O)(O)OP(=O)(O)O)[C@@H](O)[C@H]1O : 1.12
2) CN(CCCCCCN(C)c1ncnc2c1ncn2[C@@H]1O[C@H](COP(=O)(O)OP(=O)(O)OP(=O)(O)O)[C@@H](O)[C@H]1O)C(=O)CCCCCCNC(=O)CI : 1.66

// input: 2 compounds below; output: Relative velocity for each
1. O=C(CI)NCCCC(=O)NCCCCCCNc1ncnc2c1ncn2[C@@H]1O[C@H](COP(=O)(O)OP(=O)(O)OP(=O)(O)O)[C@@H](O)[C@H]1O
2. Nc1ncnc2c1ncn2[C@@H]1O[C@H](COP(=O)(O)OP(=O)(O)OP(=O)(O)O)[C@@H](O)[C@H]1O

Ans:
[1.3, 1]

---

Provide the recorded Relative velocity for the entries that follow.
# System: Saccharomyces cerevisiae
# Experiment notes: Substrate activity against yeast hexokinase as 1:1 Mg complexes at 5.0 mM

Use the examples below as a reference point.
1. CN(CCCCN(C)c1ncnc2c1ncn2[C@@H]1O[C@H](COP(=O)(O)OP(=O)(O)OP(=O)(O)O)[C@@H](O)[C@H]1O)C(=O)CCCNC(=O)CI : 1.2
2. O=C(CI)NCCCCCCCCNc1ncnc2c1ncn2[C@@H]1O[C@H](COP(=O)(O)OP(=O)(O)OP(=O)(O)O)[C@@H](O)[C@H]1O : 1.82
3. Nc1ncnc2c1ncn2[C@@H]1O[C@H](COP(=O)(O)OP(=O)(O)OP(=O)(O)O)[C@@H](O)[C@H]1O : 1
4. O=C(CI)NCC(=O)NCCCCCCNc1ncnc2c1ncn2[C@@H]1O[C@H](COP(=O)(O)OP(=O)(O)OP(=O)(O)O)[C@@H](O)[C@H]1O : 0.52
5. O=C(CI)NCCNc1ncnc2c1ncn2[C@@H]1O[C@H](COP(=O)(O)OP(=O)(O)OP(=O)(O)O)[C@@H](O)[C@H]1O : 0.75
6. CN(CCCN(C)C(=O)CCCNc1ncnc2c1ncn2[C@@H]1O[C@H](COP(=O)(O)OP(=O)(O)OP(=O)(O)O)[C@@H](O)[C@H]1O)C(=O)CCCNC(=O)CI : 0.94

Please turn your attention to the following entry.
Q: Quick one: give measured Relative velocity for `Nc1ncnc2c1nc(NCCCCCCCCNC(=O)CI)n2[C@@H]1O[C@H](COP(=O)(O)OP(=O)(O)OP(=O)(O)O)[C@@H](O)[C@H]1O`
Ans: 0.54

---

# Experimental system: Thymidine kinase (Escherichia coli) (UniProt P23331)
# Sequence (P23331 whole entry, looked up): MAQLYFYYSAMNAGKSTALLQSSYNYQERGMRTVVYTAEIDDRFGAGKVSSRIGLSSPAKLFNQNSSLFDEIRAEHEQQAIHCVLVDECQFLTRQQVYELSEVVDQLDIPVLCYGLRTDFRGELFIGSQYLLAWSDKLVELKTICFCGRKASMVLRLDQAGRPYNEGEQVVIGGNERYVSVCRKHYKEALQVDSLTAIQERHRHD
# Experiment notes: Compound was tested for the loss of thymidine kinase activity from Escherichia coli after 6 hr at 0 degrees C at 10 mM
Value type: inhibition (%)
Answers are plain numbers, in %.

Use the examples below as a reference point.
1) O=C(CI)NCCCCCC(=O)NCCCCCCNc1ncnc2c1ncn2[C@@H]1O[C@H](COP(=O)(O)OP(=O)(O)OP(=O)(O)O)[C@@H](O)[C@H]1O : 0
2) Nc1ncnc2c1nc(NCCCCCCCCNC(=O)CI)n2[C@@H]1O[C@H](COP(=O)(O)OP(=O)(O)OP(=O)(O)O)[C@@H](O)[C@H]1O : 0
3) CN(CCCN(C)C(=O)CCCCNc1ncnc2c1ncn2[C@@H]1O[C@H](COP(=O)(O)OP(=O)(O)OP(=O)(O)O)[C@@H](O)[C@H]1O)C(=O)CCCCNC(=O)CI : 51
4) O=C(CI)NCCCCCNc1ncnc2c1ncn2[C@@H]1O[C@H](COP(=O)(O)OP(=O)(O)OP(=O)(O)O)[C@@H](O)[C@H]1O : 0

Q: Quick one: give measured inhibition for `O=C(CI)NCCCCCC(=O)NCCCNc1ncnc2c1ncn2[C@@H]1O[C@H](COP(=O)(O)OP(=O)(O)OP(=O)(O)O)[C@@H](O)[C@H]1O`
Ans: 74

---

Provide the recorded Relative velocity for the entries that follow.
# Experimental system: Hexokinase-1 (Rattus norvegicus)
# Experiment notes: Substrate activity for rat hexokinase I as 1:1 Mg complex at 5.0 mM
Answers are plain numbers.

Use the examples below as a reference point.
1. O=C(CI)NCCCCCC(=O)NCCCNc1ncnc2c1ncn2[C@@H]1O[C@H](COP(=O)(O)OP(=O)(O)OP(=O)(O)O)[C@@H](O)[C@H]1O : 0.79
2. O=C(CI)NCCCCCNc1ncnc2c1ncn2[C@@H]1O[C@H](COP(=O)(O)OP(=O)(O)OP(=O)(O)O)[C@@H](O)[C@H]1O : 0.92

Please turn your attention to the following entry.
Q: Quick one: give measured Relative velocity for `Nc1ncnc2c1nc(NCCCCCCCCNC(=O)CI)n2[C@@H]1O[C@H](COP(=O)(O)OP(=O)(O)OP(=O)(O)O)[C@@H](O)[C@H]1O`
Ans: 1.16

---

Provide the recorded Velocity for the entries that follow.
# Experiment notes: Tested for the velocity of 2.8 mM compound relative to that of 2.8 mM MgATP in the assay

Use the examples below as a reference point.
1. O=C(CI)NCCCCCC(=O)NCCCCNc1ncnc2c1ncn2[C@@H]1O[C@H](COP(=O)(O)OP(=O)(O)OP(=O)(O)O)[C@@H](O)[C@H]1O : 71%
2. CN(CCCCN(C)C(=O)CCCNc1ncnc2c1ncn2[C@@H]1O[C@H](COP(=O)(O)OP(=O)(O)OP(=O)(O)O)[C@@H](O)[C@H]1O)C(=O)CCCNC(=O)CI : 14%
3. O=C(CI)NCCCNc1ncnc2c1ncn2[C@@H]1O[C@H](COP(=O)(O)OP(=O)(O)OP(=O)(O)O)[C@@H](O)[C@H]1O : 32%
4. CN(CCCCN(C)c1ncnc2c1ncn2[C@@H]1O[C@H](COP(=O)(O)OP(=O)(O)OP(=O)(O)O)[C@@H](O)[C@H]1O)C(=O)CCCCCCNC(=O)CI : 55%
5. O=C(CI)NCCCC(=O)NCCCCCCNc1ncnc2c1ncn2[C@@H]1O[C@H](COP(=O)(O)OP(=O)(O)OP(=O)(O)O)[C@@H](O)[C@H]1O : 36%

Q: Quick one: give measured Velocity for `O=C(CI)NCCCCCC(=O)NCCCNc1ncnc2c1ncn2[C@@H]1O[C@H](COP(=O)(O)OP(=O)(O)OP(=O)(O)O)[C@@H](O)[C@H]1O`
Ans: > 39%

---

# Experimental system: Hexokinase-1 (Rattus norvegicus)
# Experiment notes: Substrate activity for rat hexokinase I as 1:1 Mg complex at 5.0 mM
Value type: Relative velocity
Give bare numbers.

Use the examples below as a reference point.
1) O=C(CI)NCCCCCC(=O)NCCCCCCNc1ncnc2c1ncn2[C@@H]1O[C@H](COP(=O)(O)OP(=O)(O)OP(=O)(O)O)[C@@H](O)[C@H]1O : 1.25
2) O=C(CI)NCC(=O)NCCCCCCNc1ncnc2c1ncn2[C@@H]1O[C@H](COP(=O)(O)OP(=O)(O)OP(=O)(O)O)[C@@H](O)[C@H]1O : 0.92

Please turn your attention to the following entry.
Q: Quick one: give measured Relative velocity for `O=C(CI)NCCCCCCCCNc1ncnc2c1ncn2[C@@H]1O[C@H](COP(=O)(O)OP(=O)(O)OP(=O)(O)O)[C@@H](O)[C@H]1O`
Ans: 1.79

---

# Tested on: Saccharomyces cerevisiae
# Experiment notes: Time dependent inhibition of hexokinase activity after 6 hr, at 22 degrees celsius, with 5 mM ATP derivative in yeast.
Provide the recorded inhibition for the entries that follow.
Note: state the figure and append the unit.

1. CN(CCCCN(C)C(=O)CCCNc1ncnc2c1ncn2[C@@H]1O[C@H](COP(=O)(O)OP(=O)(O)OP(=O)(O)O)[C@@H](O)[C@H]1O)C(=O)CCCNC(=O)CI : 0%
2. CN(CCCN(C)C(=O)CCCCNc1ncnc2c1ncn2[C@@H]1O[C@H](COP(=O)(O)OP(=O)(O)OP(=O)(O)O)[C@@H](O)[C@H]1O)C(=O)CCCCNC(=O)CI : 0%

Please turn your attention to the following entry.
Q: Quick one: give measured inhibition for `CN(CCCCN(C)c1ncnc2c1ncn2[C@@H]1O[C@H](COP(=O)(O)OP(=O)(O)OP(=O)(O)O)[C@@H](O)[C@H]1O)C(=O)CCCCCCNC(=O)CI`
Ans: 0%
